FYI, the data here is from paper PMC4156298.

In this section, each of the proteins is paired with its reported kcat/Km.
Substrate: Cc1cc(=O)oc2cc(NC(=O)[C@@H](N)CCCNC(=N)N)ccc12
Assay Comment: fluorescence of released amc, Hill equation fit
Format: biochemical, Pyrococcus horikoshii
Reported Conditions: 50 mM sodium phosphate pH 7.5, 358 K, 60 min, aminopeptidase, 85.0 °C
Description: fluorescence of released amc, Hill equation fit on PH1704 protease
Give the value, in units of M⁻¹ s⁻¹, as a plain number.

Examples with their reported kcat/Km follow.
Protein	Reported Value
PH1704 protease (Pyrococcus horikoshii OT3; Y120W) (protein, full-length gene in pET-15b (NdeI/BamHI), His-tag (detected by anti-His western blot), E. coli BL21(DE3); heat step and Sephacryl S-200) MKVLFLTANEFEDVELIYPYHRLKEEGHEVYIASFERGTITGKHGYSVKVDLTFDKVNPEEFDALVLPGGRAPERVRLNEKAVSIARKMFSEGKPVASICHGPQILISAGVLRGRKGTSWPGIKDDMINAGVEWVDAEVVVDGNWVSSRVPADLYAWMREFVKLLK	1100
PH1704 protease (Pyrococcus horikoshii OT3; Y120P) (protein, full-length gene in pET-15b (NdeI/BamHI), His-tag (detected by anti-His western blot), E. coli BL21(DE3); heat step and Sephacryl S-200) MKVLFLTANEFEDVELIYPYHRLKEEGHEVYIASFERGTITGKHGYSVKVDLTFDKVNPEEFDALVLPGGRAPERVRLNEKAVSIARKMFSEGKPVASICHGPQILISAGVLRGRKGTSPPGIKDDMINAGVEWVDAEVVVDGNWVSSRVPADLYAWMREFVKLLK	6630

Query protein follows.
Data point: recombinant PH1704 protease from Pyrococcus horikoshii OT3 (enzyme, UniProt O59413 1-166, looked up, PH1704 protease, Pyrococcus horikoshii OT3, gene amplified from genomic DNA with primers at the start and at the stop codon, cloned NdeI/BamHI into pET-15b; The tag is known from detection with an anti-His tag antibody; also called WT; source: E. coli BL21 (DE3), purified (heat incubation at 80°C, Sephacryl S-200); copies: 12) MKVLFLTANEFEDVELIYPYHRLKEEGHEVYIASFERGTITGKHGYSVKVDLTFDKVNPEEFDALVLPGGRAPERVRLNEKAVSIARKMFSEGKPVASICHGPQILISAGVLRGRKGTSYPGIKDDMINAGVEWVDAEVVVDGNWVSSRVPADLYAWMREFVKLLK ; kcat/Km = 867
